tested on: 188146-221-R-J1-PDC complex spheroid viability; assay: Anticancer human tumor 188146-221-R-J1-PDC patient-derived colon adenocarcinoma cell line growth inhibition [POLQ]; settings: second compound 3.16 µM; first compound 0.000316 µM; active compounds read low
metric: viability, T/C (%)
Number in %, nothing else.

Below, each entry is followed by its recorded viability, T/C result.
>>> recorded_value("Cn1ncnc1[C@H]1c2n[nH]c(=O)c3cc(F)cc(c23)N[C@@H]1c1ccc(F)cc1 + Nc1ccc(C#CCN(C(=O)Cc2ncc(C(F)(F)F)cc2C(F)(F)F)c2ccc(F)cc2)nn1")
106
>>> recorded_value("CC[C@@]1(O)C(=O)OCc2c1cc1n(c2=O)Cc2cc3c(CN(C)C)c(O)ccc3nc2-1 + Nc1ccc(C#CCN(C(=O)Cc2ncc(C(F)(F)F)cc2C(F)(F)F)c2ccc(F)cc2)nn1")
106

Shift focus to the following entry.
Which viability, T/C reading was recorded for the compound Cn1ncnc1[C@H]1c2n[nH]c(=O)c3cc(F)cc(c23)N[C@@H]1c1ccc(F)cc1 + Cc1cccc(N(C)C(=O)C2C(O)CCN2c2nc(C)cc(C(F)(F)F)c2C#N)c1 ? 100

---

tested on: 188146-221-R-J1-PDC complex spheroid viability; assay: Anticancer human tumor 188146-221-R-J1-PDC cell line growth inhibition [POLQ]; conditions: second compound 0.316 µM; first compound 0.0316 µM; active compounds read low;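 note: spheroids exposed to compounds for seven days; 100% = DMSO vehicle control viability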
metric: viability, T/C (%)
Express your answer in %, writing the number without its unit.

The following compounds have reported results that may help.
>>> recorded_value("CCc1cc2c(N3CCc4c(cc(Cn5ccnc5)cc4-c4cn(C)nc4C(F)(F)F)C3=O)ccnc2c(OC)n1 + Nc1ccc(C#CCN(C(=O)Cc2ncc(C(F)(F)F)cc2C(F)(F)F)c2ccc(F)cc2)nn1")
119
>>> recorded_value("O=C(Nc1ccc(O)c(NS(=O)(=O)c2ccc(F)cc2)c1)c1ccc(-c2ccccc2)cc1 + Nc1ccc(C#CCN(C(=O)Cc2ncc(C(F)(F)F)cc2C(F)(F)F)c2ccc(F)cc2)nn1")
119

Here is another compound to look at.
Given the compound CC1COCCN1c1cc(-c2ccnn2C)c2ccnc(-c3ccn[nH]3)c2n1 (stereo not drawn) + Nc1ccc(C#CCN(C(=O)Cc2ncc(C(F)(F)F)cc2C(F)(F)F)c2ccc(F)cc2)nn1 , what is its reported viability, T/C? 80

---

test system: 188146-221-R-J1-PDC complex spheroid viability; test: Anticancer human tumor 188146-221-R-J1-PDC cell line growth inhibition [POLQ]; details: second compound 0.316 µM; first compound 0.01 µM; active compounds read low;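 note: spheroids exposed to compounds for seven days; 100% = DMSO vehicle control viability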
Reported viability, T/C values for the following compounds.
Response body: numeric value in %, unit text excluded.

>>> recorded_value("CC[C@@]1(O)C(=O)OCc2c1cc1n(c2=O)Cc2cc3c(CN(C)C)c(O)ccc3nc2-1 + Cc1cccc(N(C)C(=O)C2C(O)CCN2c2nc(C)cc(C(F)(F)F)c2C#N)c1")
87
>>> recorded_value("CCc1c2c(nc3ccc(O)cc13)-c1cc3c(c(=O)n1C2)COC(=O)[C@]3(O)CC + Cc1cccc(N(C)C(=O)C2C(O)CCN2c2nc(C)cc(C(F)(F)F)c2C#N)c1")
87.7
>>> recorded_value("Cn1ncnc1[C@H]1c2n[nH]c(=O)c3cc(F)cc(c23)N[C@@H]1c1ccc(F)cc1 + Nc1ccc(C#CCN(C(=O)Cc2ncc(C(F)(F)F)cc2C(F)(F)F)c2ccc(F)cc2)nn1")
93.8
>>> recorded_value("COc1cccc(OCCCN)c1-c1cc(Nc2cnc(C#N)cn2)n[nH]1 + Nc1ccc(C#CCN(C(=O)Cc2ncc(C(F)(F)F)cc2C(F)(F)F)c2ccc(F)cc2)nn1")
99.1

Okay, now this compound:
May I ask what viability, T/C has been recorded for CC[C@@]1(O)C(=O)OCc2c1cc1n(c2=O)Cc2cc3c(CN(C)C)c(O)ccc3nc2-1 + COC1C(OC(N)=O)C(O)C(Oc2ccc3c(O)c(NC(=O)c4ccc(O)c(CC=C(C)C)c4)c(=O)oc3c2C)OC1(C)C ? 98.1

These entries and their values trace back to PubChem BioAssay AID1963851.
